# EXPERIMENTAL TARGET: CCL5 (Homo sapiens)
# Sequence (P13501 24-91, species assumed): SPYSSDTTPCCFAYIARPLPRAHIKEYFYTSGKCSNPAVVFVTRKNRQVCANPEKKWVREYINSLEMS
# TEST METHOD NOTES: Chemokine glycan microarray binding assay
# CONDITIONS: maximum RFU set as 100% binding, average across 2 glycan concentrations and 3 chemokine dilutions (n=6)
Measured mean rank binding to CCL5, listed per entry.
ENDPOINT LABEL: mean rank binding to CCL5 (%)

[[record]]
molecule = "NCCCO[C@@H]1OC(C(=O)O)[C@@H](O[C@H]2OC(COS(=O)(=O)O)[C@@H](O[C@@H]3OC(C(=O)O)[C@@H](O[C@H]4OC(COS(=O)(=O)O)[C@@H](O)C(O)C4N)C(O)C3OS(=O)(=O)O)C(O)C2N)C(O)C1OS(=O)(=O)O (stereo partly shown)"
endpoint_label = "mean rank binding to CCL5"
assay_result = 95

[[record]]
molecule = "NCCCO[C@@H]1OC(C(=O)O)[C@@H](O[C@H]2OC(CO)[C@@H](O[C@@H]3OC(C(=O)O)[C@@H](O[C@H]4OC(CO)[C@@H](O)C(O)C4N)C(O)C3O)C(O)C2N)C(O)C1O (stereo partly shown)"
endpoint_label = "mean rank binding to CCL5"
assay_result = 3

[[record]]
molecule = "NCCOCCO[C@@H]1O[C@@H](C(=O)O)[C@@H](O[C@@H]2O[C@@H](C(=O)O)[C@@H](O[C@@H]3O[C@@H](C(=O)O)[C@@H](O[C@@H]4O[C@@H](C(=O)O)[C@@H](OS(=O)(=O)O)[C@H](O)[C@H]4O)[C@H](O)[C@H]3O)[C@H](O)[C@H]2O)[C@H](O)[C@H]1O"
endpoint_label = "mean rank binding to CCL5"
assay_result = 80

[[record]]
molecule = "NCCCO[C@@H]1O[C@@H](C(=O)O)[C@@H](O[C@H]2O[C@H](CO)[C@@H](O[C@@H]3O[C@@H](C(=O)O)[C@@H](O[C@H]4O[C@H](CO)[C@@H](O)[C@H](OS(=O)(=O)O)[C@H]4N)[C@H](O)[C@H]3OS(=O)(=O)O)[C@H](OS(=O)(=O)O)[C@H]2N)[C@H](O)[C@H]1OS(=O)(=O)O"
endpoint_label = "mean rank binding to CCL5"
assay_result = 4


----------
# EXPERIMENTAL TARGET: UniProt P48061
# Sequence (P48061 22-93, species assumed): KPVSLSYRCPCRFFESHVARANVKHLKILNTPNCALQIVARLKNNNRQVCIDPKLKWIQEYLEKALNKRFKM
# TEST METHOD NOTES: Chemokine glycan microarray binding assay
# CONDITIONS: maximum RFU set as 100% binding, average across 2 glycan concentrations and 3 chemokine dilutions (n=6)
ENDPOINT LABEL: mean rank binding to CXCL12 (%)

[[record]]
molecule = "NCCOCCO[C@@H]1O[C@@H](C(=O)O)[C@@H](O[C@@H]2O[C@@H](C(=O)O)[C@@H](O[C@@H]3O[C@@H](C(=O)O)[C@@H](OS(=O)(=O)O)[C@H](O)[C@H]3OS(=O)(=O)O)[C@H](O)[C@H]2OS(=O)(=O)O)[C@H](O)[C@H]1OS(=O)(=O)O [Example 9]"
assay_result = 75

[[record]]
molecule = "NCCOCCO[C@@H]1O[C@@H](C(=O)O)[C@@H](O[C@@H]2O[C@@H](C(=O)O)[C@@H](OS(=O)(=O)O)[C@H](O)[C@H]2OS(=O)(=O)O)[C@H](O)[C@H]1OS(=O)(=O)O [Example 6]"
assay_result = 79

[[record]]
molecule = "NCCOCCO[C@@H]1O[C@@H](C(=O)O)[C@@H](O[C@@H]2O[C@@H](C(=O)O)[C@@H](O[C@@H]3O[C@@H](C(=O)O)[C@@H](OS(=O)(=O)O)[C@H](O)[C@H]3O)[C@H](O)[C@H]2O)[C@H](O)[C@H]1O [Example 8]"
assay_result = 45

[[record]]
molecule = "NCCCO[C@@H]1OC(C(=O)O)[C@@H](O[C@H]2OC(CO)[C@@H](O[C@@H]3OC(C(=O)O)[C@@H](O[C@H]4OC(CO)[C@@H](O)C(O)C4N)C(O)C3O)C(O)C2N)C(O)C1O (stereo partly shown) [Example 15]"
assay_result = 51

